B1: tRNA (parent)
chain: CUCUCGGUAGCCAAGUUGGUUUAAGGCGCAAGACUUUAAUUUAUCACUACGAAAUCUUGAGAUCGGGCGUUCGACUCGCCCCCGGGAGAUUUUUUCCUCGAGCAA

Variants of: B1
Test: nonsense suppression (GFP-seq) (ratio to wild type); higher = more function; SUP4oc tRNA, yeast GFP reporter sort-seq
Fewer inactive variants are shown than the library holds.
Would you mind telling me the reported nonsense suppression of each entry?
Numbers only.

# var, obs-value
measured = [
    ("A9G G61A G85A", 0.303),
]

Please state, for each entry, its recorded nonsense suppression.
1. G61C G67A
2. A13U A23U
3. C5U G61A
4. A23G A54U
5. U4A A30G
6. U22C U63C C68U
7. U2G A9U

Response:
[0.0647, 0.0855, 0.0314, 0.0263, 0.0267, 0.0629, 0.0677]
